Consider the following molecules; for each one, report its Herbicidal effect, common purslane.
- System: common purslane (Portulaca oleracea)
- testDetails: Pre-emergence application, herbicidal effect on common purslane (Table 1)
- Assay type: in vivo
- Parameters: key: 0: not damaged; 5: completely killed
- appliedConditions: 10 g./a., 20 days after application, score 0-5

Examples with their reported Herbicidal effect, common purslane follow.
C=CCSP(=O)(OCCC)SCC(=O)N1CCCCC1C (centres unmarked)
5
CCCSP(=O)(OCC)SCC(=O)N1CCCCC1CC (centres unmarked)
5
CCCCOP(=O)(SCC(=O)N1CCCCC1C)SCc1ccc(C)cc1 (centres unmarked)
3

Take each entry in turn and give its Herbicidal effect, common purslane.
1. CCOP(=O)(SCC(=O)N1CCC(C)CC1)SC(C)CC (centres unmarked)
2. CCOP(=O)(SCC(=O)N1CCCCC1C)SC(C)C (centres unmarked)
3. CCOP(=O)(SCC(=O)N1CCCCC1C)SC(C)c1ccccc1 (centres unmarked)
4. CCOP(=O)(SCCC(C)C)SCC(=O)N1CCCCC1C (centres unmarked)
5. CCOP(=O)(SC)SCC(=O)N1CCCCC1CC (centres unmarked)

1. 4
2. 5
3. 3
4. 5
5. 5

List reported Herbicidal effect, common purslane for each of these molecules:
1. CCCOP(=O)(SCC)SCC(=O)N1CCCCC1CC (centres unmarked)
2. CCCOP(=O)(SCCC)SCC(=O)N1CCCCC1C (centres unmarked)
3. CCCCCSP(=O)(OCCC)SCC(=O)N1CCCCC1CC (centres unmarked)
4. CCCOP(=O)(SCCC(C)C)SCC(=O)N1CCCCC1CC (centres unmarked)

[5, 4, 3, 3]

Can you give me Herbicidal effect, common purslane for all of these, one by one?
1. CCOP(=O)(SCC(=O)N1CCCCC1C)SC1CCCCC1 (centres unmarked)
2. CCOP(=O)(SCC(=O)N1CCCC(C)C1)SC(C)C (centres unmarked)

[3, 4]

# return Herbicidal effect, common purslane for each item in the list
1. CCOP(=O)(SCC(=O)N1CCCCC1CC)SCC(C)C (centres unmarked)
2. CCCCOP(=O)(SCC(=O)N1CCCCC1CC)SC(C)CC (centres unmarked)
3. CCCSP(=O)(OCC)SCC(=O)N1CCCCC1C (centres unmarked)
4. CCCCSP(=O)(OCC)SCC(=O)N1CCCCC1C (centres unmarked)
5. CCCCCCCCSP(=O)(OCC)SCC(=O)N1CCCCC1C (centres unmarked)
6. CCCOP(=O)(SCC(=O)N1CCCCC1CC)SCC(C)C (centres unmarked)
7. C=C(Cl)CSP(=O)(OCC)SCC(=O)N1CCCCC1C (centres unmarked)
8. CCOP(=O)(SCCc1ccccc1)SCC(=O)N1CCCCC1C (centres unmarked)

5
3
5
4
4
3
5
4

Sourced from patent US4015974A
